System: PC-3 prostate
assay-method-text: NCI-60 one-dose screen, 48 h (100 = growth as untreated, 0 = no growth, -100 = all killed)
stated-conditions: 10 µM unless noted
This is part of a sample that, as a whole, favours compounds with a hit. Of some 83,000 tested, about 20% had one in any assay.
readout-type: growth (%)
Response body: numeric value in %, unit text excluded.

// solved cases for growth follow
O=C1CSC(c2ccccc2)N1c1ccccc1 (stereo not given): 91.4
Cc1ccc2c(n1)C(=O)C(Oc1ccc(F)cc1)=CC2=O: 98.9

Item: COc1ccc(NC(=O)c2cccc(-c3cc(=O)c4c(O)c(OC)c(OC)cc4o3)c2)cc1 | growth: 86.2

Reported growth for CCCCCCCCCCCCCCCCCC1=NCCN1C(=O)OCCO was 28.4

Kindly note the recorded growth for C=CCO[C@H]1CO[C@H]2[C@@H]1OC[C@@H]2Oc1ccc(Nc2ccnc(Nc3ccc(O[C@H]4CO[C@H]5[C@@H]4OC[C@@H]5OCC=C)c(Cl)c3)n2)cc1Cl , which is 14

* * *

Recorded growth, one value per entry.
Tested on: HT29 colon
assay-method-text: NCI-60 one-dose screen, 48 h (100 = growth as untreated, 0 = no growth, -100 = all killed)
stated-conditions: 10 µM unless noted
About 83,000 compounds went through this panel and 20% of them were active in at least one assay; those are over-represented in the sample as a whole.
Please give a number only; it is taken to be in %.

N=C(N)c1ccc(-c2ccc(-c3ccc(Cl)c(Cl)c3)o2)nc1: -39.8

CCOC(=O)c1cnn2c(-c3ccc(Cl)cc3)nc(NCc3ccccc3)nc12 yielded growth of 51

The recorded growth for Cc1nc(Nc2ccc(NC(=S)Nc3ccccc3)cc2)nc2nc(SCc3ccccc3)[nH]c(=O)c12 is 120

# growth (molecule: O=[N+]([O-])c1ccc(-c2cc3c(Nc4ccc(OCc5cccc(Cl)c5)c(Cl)c4)ncnc3s2)cc1 ) is 47.3

# growth of COc1cc(-c2cccc([N+](=O)[O-])c2)c(-c2nc(-c3ccccc3)c(-c3ccccc3)n2C2CC2)cc1OC = 44.5

growth recorded for this molecule, COc1ccc(-c2cc(-c3cc(OC)ccc3OC)[nH]c(=O)c2C#N)cc1 , is 38.1

GET /value?item= Cc1c(C(=O)O[C@H]2[C@@H]3[C@H](C)CC[C@H]3[C@]3(C)O[C@@]2(C2CCCCC2)C[C@H]3OC(=O)CO)ccc2ccccc12 &field=growth returns -4.24

Short answer for CCOC(=O)c1sc(-c2ccc(OS(=O)(=O)c3ccc(C(C)(C)C)cc3)c(C=O)c2)nc1C : growth was 19.7

Lab note: CCOC(=O)c1c2c(c(C)n1C)-c1nn(Cc3ccc(OC)cc3)cc1CC2 gave growth of 79.1

* * *

Test system: TK-10 renal
assay-method-text: NCI-60 one-dose screen, 48 h
stated-conditions: 10 µM unless noted
This is part of a sample that, as a whole, favours compounds with a hit. Of some 83,000 tested, about 20% had one in any assay. Calls of active or inactive are those of the source. Rule for the calls: active = growth percent below 10; inactive = the rest.
Can you answer with just one of these options? active, inactive

Record request — test call for Cc1ccc(S(=O)(=O)NN/C(N)=N\S(=O)(=O)c2cc(C)c(Cl)cc2SCc2ccccc2)cc1 inactive

Recorded test call requested for CCCCCCCCc1cc[n+](CC(=O)c2ccc(Br)cc2)cc1 active

Kindly provide the recorded test outcome for the following molecule: CC(C)n1nc(C#Cc2cccc(O)c2)c2c(N)ncnc21 active

Write down the call the test reported for this molecule. Item: CCCCN(CCCC)CCCn1c(=O)c2sc3ncccc3c2n2nnc(-c3ccccc3)c12 inactive

Could you check what this test reported for Cc1nc(Nc2ccc(NC(=S)Nc3ccccc3)cc2)nc2nc(Nc3cccc(Cl)c3)[nH]c(=O)c12 ? inactive

* * *

Test system: T-47D breast
assay-method-text: NCI-60 one-dose screen, 48 h (100 = growth as untreated, 0 = no growth, -100 = all killed)
stated-conditions: 10 µM unless noted
Compounds without any hit were thinned out: in the full panel of roughly 83,000, 20% have a hit.
readout-type: growth (%)
Report only the number, with the unit % understood.

As a guide, the following entries are already answered.
O=C(Oc1ccc([N+](=O)[O-])cc1)c1ccc(CBr)cc1: 125
COc1ccc(-c2nnc(SCC(=O)NC3=NN=C(c4ccccc4)CS3)o2)cc1: 78.4
COc1cc(C(=O)/C=C/c2c(C(F)(F)F)nc3ccccn23)cc(OC)c1OC: 8.03
Cc1ccc(/C=C(\C#N)n2nnc3cc(Cl)c(Cl)cc32)cc1: 15.1

Consider now this further compound.
Bench note, T-47D breast: entry CC(=O)Nc1cccc(C2=CC(c3ccc(C)cc3)n3ncnc3N2)c1 (stereo not given) , its growth = 87.5

* * *

Listed here are compounds together with their documented growth.
Test system: A549/ATCC NSCLC
assay-method-text: NCI-60 one-dose screen, 48 h (100 = growth as untreated, 0 = no growth, -100 = all killed)
stated-conditions: 10 µM unless noted
The panel holds about 83,000 compounds, 20% with a hit somewhere; the sample as a whole holds those more often.
Respond numerically; units are % and should not be typed.

Looking up O=C1C=CC(=Nc2cc(Br)c(O)c(Br)c2)C=C1 , I see its growth listed as 118

# compound COc1ccc(-c2cc(-c3ccc(Nc4nc(Nc5ccccc5)nc(Nc5ccc(Cl)cc5)n4)cc3)nc(N)n2)cc1 ; its growth = 79.5

get_value(item= Cc1cnc(Nc2ccc(OCCN3CCCC3)cc2)nc1NCc1ccco1 , readout=growth) returns 76.3

// recorded growth for C=CC(=O)N[C@@H](Cc1ccc(-c2cc(Cl)cc(Cl)c2)cc1)[C@@H](O)[C@H](O)C(=O)O : 79

Sample COC1=CC(c2ccc[nH]2)=N/C1=C\c1[nH]c(C)c(C(=O)OCCn2cc(CCC[C@@H]3Cc4cc(O)ccc4C4CC[C@]5(C)[C@@H](O)CC[C@H]5C43)nn2)c1C (stereo not given in full) ; growth observed: 82.2

* * *

Tested on: BT-549 breast
assay-method-text: NCI-60 one-dose screen, 48 h
stated-conditions: 10 µM unless noted
Method: Growth inhibition of the BT-549 human tumor cell line is measured as a screen for anti-cancer activity. Cells are grown in 96 well plates and exposed to the test compound for 48 hours. Compounds are tested at a single concentration, which is 10^-5 M for most compounds. The reported endpoint is percent growth (GI% or GIPRCNT), where numbers from 0 - 100% represent growth inhibition, and numbers from -100% - 0 represent cell death. For example, a value of 40 represents 60% growth inhibition. […]
Compounds without any hit were thinned out: in the full panel of roughly 83,000, 20% have a hit. Active and inactive are the calls of the source. Rule for the calls: active = growth percent below 10; inactive = the rest.
// one of active, inactive, no free text

Reference set (3 entries):
CCCCN1CCN(c2ccc3nc(-c4ccc5nc(-c6ccc(OCC)c(OCC)c6)[nH]c5c4)[nH]c3c2)CC1: active
COc1ccc(C2CC(c3cnccn3)=NN2)cc1OC (stereo unspecified): inactive
O=[N+]([O-])c1ccc2[nH]cc(-c3c4ccsc4cc4[nH]c5ccc([N+](=O)[O-])cc5c34)c2c1: inactive

I would be grateful if you could indicate the recorded call for Cc1cc(-c2ccc(N(C)C)cc2)c2sc(=O)[nH]c2n1 . inactive

Assay result, entry CC(C)OC(=O)OCOP(=O)(OCOC(=O)OC(C)C)C1CCCN(O)C1=O (stereo unspecified) — outcome? inactive

* * *

Tested on: MDA-MB-231 breast
assay-method-text: NCI-60 one-dose screen, 48 h (100 = growth as untreated, 0 = no growth, -100 = all killed)
stated-conditions: 10 µM unless noted
This is part of a sample that, as a whole, favours compounds with a hit. Of some 83,000 tested, about 20% had one in any assay.
Categories are defined by ranges of growth, namely lower band (below 40%), central band (40% to below 90%), upper band (90% or more)

The following compounds have reported results that may help.
N#C/C=C(\c1ccc([N+](=O)[O-])cc1)n1nnc2cc(Cl)c(Cl)cc21: lower band
COc1ccc(-n2nnc(C(=O)NCCc3c[nH]c4ccc(F)cc34)c2C)cc1: upper band
O=[N+]([O-])c1ccc2[nH]cc(-c3c4ccsc4cc4[nH]c5ccc([N+](=O)[O-])cc5c34)c2c1: lower band
Cc1nn(Cc2ccccc2)cc1C(=O)Nc1sc2c(c1C(N)=O)CCC(=O)C2: lower band
COC(=O)CNC(=O)C(=O)c1c(O)c(O)c(C(C)C)c2cc(C)c(-c3c(C)cc4c(C(C)C)c(O)c(O)c(C(=O)C(=O)NCC(=O)OC)c4c3O)c(O)c12: lower band
O=C1C2=C(CCN(Cc3ccccc3)C2)N2CCN=C2N1Cc1ccc(F)cc1F: lower band
Cc1nc(Nc2ccc(NC(=S)Nc3ccccc3)cc2)c2ccccc2n1: upper band
CCc1nc2ccccc2[nH]1: upper band
CC(C)CCC[C@@H](C)[C@H]1CCC2C3=CCC4C(=O)C=CC(=O)C4C3CC[C@@]21C (some centres not stated): lower band
O=C1Nc2ccccc2SC1c1ccccc1Cl (configuration not stated): upper band

Class (by measured growth) for COc1ccc(/C(C)=C(\c2ccc(Cl)cc2)c2ccc(OCCCN(C)C)cc2)cc1F central band

Using the reported growth, which band applies to O=C(Oc1ccc[nH]c1=O)c1cc([N+](=O)[O-])cc([N+](=O)[O-])c1 ? upper band

Please report the category associated with Cc1c(Cl)cccc1NS(=O)(=O)c1ccccc1 , nothing else. upper band

Hello team, could you let me know which band the following compound falls into: CCOC(=O)c1c2c(c(C)n1C)-c1nn(Cc3ccc(OC)cc3)cc1CC2 upper band

Please let me know in which category the item O=C1C=CC(=Nc2cc(Br)c(O)c(Br)c2)C=C1 belongs. central band

Place this compound in its band: CCO/C=N/C1=C(C#N)C(c2ccc(OC)cc2)c2c(c3ccccc3n(C)c2=O)O1 (configuration not stated) upper band

Form field 'band' for CN(C)CCC(O)(Cc1ccccc1)c1ccccc1 (configuration not stated) upper band

Band assignment needed for O=C1/C(=C/c2ccccc2[N+](=O)[O-])COc2ccc(O)c(O)c21 please. lower band

Category of Cc1cnc(Nc2ccc(OCCN3CCCC3)cc2)nc1NCc1ccco1 : central band

Reference for the values: PubChem BioAssay (NCI)
